System: Aspergillus niger
Test: Antimicrobial activity against Aspergillus niger MTCC 282 after 72 hr by serial broth dilution method
Format: functional
Conditions: MTCC 282, 72 h
experimental-endpoint: MIC (µg/mL)
Please state the figure in µg/mL; there is no need to write the unit.

Ask: Recorded MIC of N#CCCCSC1=NC(c2ccc(N)cc2)=CC(c2ccccc2)N1 (stereo not drawn) , please.
Reply: 100

Ask: Recorded MIC of Cc1ccc(C2C=C(c3ccc(N)cc3)N=C(SCCCC#N)N2)cc1 (stereo not drawn) , please.
Reply: 50

Ask: Recorded MIC of COc1cc(C2C=C(c3ccc(N)cc3)N=C(SCCCC#N)N2)ccc1O (stereo not drawn) , please.
Reply: 100

###

Tested on: Aspergillus niger
Assay: Antimicrobial activity against Aspergillus niger MTCC 282 after 72 hr by serial broth dilution method
Format: functional
Details: MTCC 282, 72 h
experimental-endpoint: MIC (µg/mL)
Please state the figure in µg/mL; there is no need to write the unit.

Ask: Recorded MIC of N#CCCCSC1=NC(c2ccc(N)cc2)=CC(c2cccc(O)c2)N1 (stereo not given) , please.
Reply: 500

Ask: Recorded MIC of Cc1ccccc1C1C=C(c2ccc(N)cc2)N=C(SCCCC#N)N1 (stereo not given) , please.
Reply: 500

Ask: Recorded MIC of COc1ccc(C2C=C(c3ccc(N)cc3)N=C(SCCCC#N)N2)cc1 (stereo not given) , please.
Reply: 200

Ask: Recorded MIC of CN(C)c1ccc(C2C=C(c3ccc(N)cc3)N=C(SCCCC#N)N2)cc1 (stereo not given) , please.
Reply: 500

Ask: Recorded MIC of COC1=CC(=O)C[C@@H](C)[C@]12Oc1c(Cl)c(OC)cc(OC)c1C2=O , please.
Reply: 100

Ask: Recorded MIC of N#CCCCSC1=NC(c2ccc(N)cc2)=CC(c2ccc(Cl)cc2)N1 (stereo not given) , please.
Reply: 500

Ask: Recorded MIC of N#CCCCSC1=NC(c2ccc(N)cc2)=CC(c2ccc([N+](=O)[O-])cc2)N1 (stereo not given) , please.
Reply: 50

Ask: Recorded MIC of Cc1cccc(C2C=C(c3ccc(N)cc3)N=C(SCCCC#N)N2)c1 (stereo not given) , please.
Reply: 500

Ask: Recorded MIC of N#CCCCSC1=NC(c2ccc(N)cc2)=CC(c2ccccc2O)N1 (stereo not given) , please.
Reply: 100

Ask: Recorded MIC of N#CCCCSC1=NC(c2ccc(N)cc2)=CC(c2ccc(O)cc2)N1 (stereo not given) , please.
Reply: 500

###

Tested on: Pseudomonas aeruginosa
Assay: Antimicrobial activity against Pseudomonas aeruginosa MTCC 1688 after 24 hr by serial broth dilution method
Format: functional
Settings: MTCC 1688, 24 h
Kindly supply the reported MIC values for the records listed here.
Please state the figure in mg/L; there is no need to write the unit.

Ask: Recorded MIC of N#CCCCSC1=NC(c2ccc(N)cc2)=CC(c2ccccc2)N1 (stereo unspecified) , please.
Reply: 50

Ask: Recorded MIC of N#CCCCSC1=NC(c2ccc(N)cc2)=CC(c2ccc([N+](=O)[O-])cc2)N1 (stereo unspecified) , please.
Reply: 100

Ask: Recorded MIC of N#CCCCSC1=NC(c2ccc(N)cc2)=CC(c2ccc(Cl)cc2)N1 (stereo unspecified) , please.
Reply: 100

Ask: Recorded MIC of CC1(C)S[C@@H]2[C@H](NC(=O)[C@H](N)c3ccccc3)C(=O)N2[C@H]1C(=O)O [AMPICILLIN] , please.
Reply: 100

Ask: Recorded MIC of COc1cc(C2C=C(c3ccc(N)cc3)N=C(SCCCC#N)N2)ccc1O (stereo unspecified) , please.
Reply: 100

Ask: Recorded MIC of N#CCCCSC1=NC(c2ccc(N)cc2)=CC(c2ccccc2O)N1 (stereo unspecified) , please.
Reply: 250

Ask: Recorded MIC of CN(C)c1ccc(C2C=C(c3ccc(N)cc3)N=C(SCCCC#N)N2)cc1 (stereo unspecified) , please.
Reply: 250

Ask: Recorded MIC of Cc1ccc(C2C=C(c3ccc(N)cc3)N=C(SCCCC#N)N2)cc1 (stereo unspecified) , please.
Reply: 500

Ask: Recorded MIC of COc1ccc(C2C=C(c3ccc(N)cc3)N=C(S)N2)cc1 (stereo unspecified) , please.
Reply: 250

Ask: Recorded MIC of Cc1ccccc1C1C=C(c2ccc(N)cc2)N=C(SCCCC#N)N1 (stereo unspecified) , please.
Reply: 250

Ask: Recorded MIC of N#CCCCSC1=NC(c2ccc(N)cc2)=CC(c2cccc(O)c2)N1 (stereo unspecified) , please.
Reply: 500

###

Tested on: Escherichia coli
Test: Antimicrobial activity against Escherichia coli MTCC 443 after 24 hr by serial broth dilution method
Type: functional
Settings: MTCC 443, 24 h
experimental-endpoint: MIC
Value and unit, in that order.

Ask: Recorded MIC of N#CCCCSC1=NC(c2ccc(N)cc2)=CC(c2ccccc2)N1 (stereo not given) , please.
Reply: 500 µg/mL

Ask: Recorded MIC of Nc1ccc(C2=CC(c3ccc(O)cc3)NC(S)=N2)cc1 (stereo not given) , please.
Reply: 250 µg/mL

Ask: Recorded MIC of N#CCCCSC1=NC(c2ccc(N)cc2)=CC(c2ccccc2O)N1 (stereo not given) , please.
Reply: 50 µg/mL

Ask: Recorded MIC of Cc1ccccc1C1C=C(c2ccc(N)cc2)N=C(SCCCC#N)N1 (stereo not given) , please.
Reply: 500 µg/mL

Ask: Recorded MIC of COc1cc(C2C=C(c3ccc(N)cc3)N=C(S)N2)ccc1O (stereo not given) , please.
Reply: 250 µg/mL

###

Tested on: Streptococcus pyogenes
Test: Antimicrobial activity against Streptococcus pyogenes MTCC 442 after 24 hr by serial broth dilution method
Format: functional
Conditions: MTCC 442, 24 h
experimental-endpoint: MIC

Ask: Recorded MIC of N#CCCCSC1=NC(c2ccc(N)cc2)=CC(c2ccc(Cl)cc2)N1 (stereo not given) , please.
Reply: 100 µg/mL

Ask: Recorded MIC of COc1cc(C2C=C(c3ccc(N)cc3)N=C(S)N2)ccc1O (stereo not given) , please.
Reply: 250 µg/mL

Ask: Recorded MIC of N#CCCCSC1=NC(c2ccc(N)cc2)=CC(c2ccc([N+](=O)[O-])cc2)N1 (stereo not given) , please.
Reply: 500 µg/mL

Ask: Recorded MIC of N#CCCCSC1=NC(c2ccc(N)cc2)=CC(c2cccc(O)c2)N1 (stereo not given) , please.
Reply: 200 µg/mL

Ask: Recorded MIC of Cc1cccc(C2C=C(c3ccc(N)cc3)N=C(SCCCC#N)N2)c1 (stereo not given) , please.
Reply: 500 µg/mL

Ask: Recorded MIC of COc1ccc(C2C=C(c3ccc(N)cc3)N=C(SCCCC#N)N2)cc1 (stereo not given) , please.
Reply: 500 µg/mL

Ask: Recorded MIC of N#CCCCSC1=NC(c2ccc(N)cc2)=CC(c2ccc(O)cc2)N1 (stereo not given) , please.
Reply: 50 µg/mL

Ask: Recorded MIC of COc1cc(C2C=C(c3ccc(N)cc3)N=C(SCCCC#N)N2)ccc1O (stereo not given) , please.
Reply: 100 µg/mL

Ask: Recorded MIC of Cc1ccccc1C1C=C(c2ccc(N)cc2)N=C(SCCCC#N)N1 (stereo not given) , please.
Reply: 1000 µg/mL

Ask: Recorded MIC of N#CCCCSC1=NC(c2ccc(N)cc2)=CC(c2ccccc2O)N1 (stereo not given) , please.
Reply: 100 µg/mL

Ask: Recorded MIC of CC1(C)S[C@@H]2[C@H](NC(=O)[C@H](N)c3ccccc3)C(=O)N2[C@H]1C(=O)O [AMPICILLIN] , please.
Reply: 100 µg/mL

Ask: Recorded MIC of N#CCCCSC1=NC(c2ccc(N)cc2)=CC(c2ccccc2)N1 (stereo not given) , please.
Reply: 1000 µg/mL

Ask: Recorded MIC of CN(C)c1ccc(C2C=C(c3ccc(N)cc3)N=C(SCCCC#N)N2)cc1 (stereo not given) , please.
Reply: 1000 µg/mL

Ask: Recorded MIC of Nc1ccc(C2=CC(c3ccc(O)cc3)NC(S)=N2)cc1 (stereo not given) , please.
Reply: 250 µg/mL

Ask: Recorded MIC of Cc1ccc(C2C=C(c3ccc(N)cc3)N=C(SCCCC#N)N2)cc1 (stereo not given) , please.
Reply: 500 µg/mL

###

Tested on: Candida albicans
Assay: Antimicrobial activity against Candida albicans MTCC 227 after 72 hr by serial broth dilution method
Format: functional
Details: MTCC 227, 72 h
Kindly supply the reported MIC values for the records listed here.
Please state the figure in µg/mL; there is no need to write the unit.

Ask: Recorded MIC of COc1ccc(C2C=C(c3ccc(N)cc3)N=C(SCCCC#N)N2)cc1 (stereo not drawn) , please.
Reply: 500

Ask: Recorded MIC of N#CCCCSC1=NC(c2ccc(N)cc2)=CC(c2ccccc2)N1 (stereo not drawn) , please.
Reply: 1000

Ask: Recorded MIC of COC1=CC(=O)C[C@@H](C)[C@]12Oc1c(Cl)c(OC)cc(OC)c1C2=O [GRISEOFULVIN] , please.
Reply: 500

Ask: Recorded MIC of CN(C)c1ccc(C2C=C(c3ccc(N)cc3)N=C(SCCCC#N)N2)cc1 (stereo not drawn) , please.
Reply: 1000

Ask: Recorded MIC of N#CCCCSC1=NC(c2ccc(N)cc2)=CC(c2ccc([N+](=O)[O-])cc2)N1 (stereo not drawn) , please.
Reply: 500

Ask: Recorded MIC of N#CCCCSC1=NC(c2ccc(N)cc2)=CC(c2ccccc2O)N1 (stereo not drawn) , please.
Reply: 200

Ask: Recorded MIC of Cc1ccc(C2C=C(c3ccc(N)cc3)N=C(SCCCC#N)N2)cc1 (stereo not drawn) , please.
Reply: 1000

Ask: Recorded MIC of N#CCCCSC1=NC(c2ccc(N)cc2)=CC(c2ccc(Cl)cc2)N1 (stereo not drawn) , please.
Reply: 1000

Ask: Recorded MIC of Cc1ccccc1C1C=C(c2ccc(N)cc2)N=C(SCCCC#N)N1 (stereo not drawn) , please.
Reply: 1000

Ask: Recorded MIC of N#CCCCSC1=NC(c2ccc(N)cc2)=CC(c2ccc(O)cc2)N1 (stereo not drawn) , please.
Reply: 500

Ask: Recorded MIC of Cc1cccc(C2C=C(c3ccc(N)cc3)N=C(SCCCC#N)N2)c1 (stereo not drawn) , please.
Reply: 1000

Ask: Recorded MIC of N#CCCCSC1=NC(c2ccc(N)cc2)=CC(c2cccc(O)c2)N1 (stereo not drawn) , please.
Reply: 50

Ask: Recorded MIC of COc1cc(C2C=C(c3ccc(N)cc3)N=C(SCCCC#N)N2)ccc1O (stereo not drawn) , please.
Reply: 100
